All values here come from PubChem BioAssay AID1919009.

Test system: K24384-001-R-PDC complex spheroid growth
Assay: Anticancer human tumor K24384-001-R-PDC patient-derived pancreatic adenocarcinoma cell line growth inhibition [AhR]
Conditions: second compound 10 µM; first compound 3.16 µM; active compounds read low
readout_kind: viability, T/C (%)
State the answer as a number, implicitly in %.

Kindly note the recorded viability, T/C for COc1cc(Nc2ncc3c(n2)-c2ccc(Cl)cc2C(c2c(F)cccc2OC)=NC3)ccc1C(=O)O + Cc1ccccc1N=Nc1ccc(NC(=O)c2ccnn2C)c(C)c1 , which is 75.4

// field: viability, T/C; key: COc1cc(C2c3cc4c(cc3C(OC3OC5COC(C)OC5C(O)C3O)C3COC(=O)C23)OCO4)cc(OC)c1O (stereo unspecified) + Cc1cncc(-c2nc(NCCc3c[nH]c4ccccc34)c3ncn(C(C)C)c3n2)c1 ; value = 6.89

Short answer for O=C(C=Cc1cccc(S(=O)(=O)Nc2ccccc2)c1)NO + Cc1cncc(-c2nc(NCCc3c[nH]c4ccccc34)c3ncn(C(C)C)c3n2)c1 : viability, T/C was 10.3

Value of measured viability, T/C for the entry COc1ccc([C@@H](O)c2cc(-c3ncnc4cc(N5CCOCC5)ccc34)c(F)cc2Cl)nn1 + Cc1ccccc1N=Nc1ccc(NC(=O)c2ccnn2C)c(C)c1 : 50.9

Field viability, T/C (entry O=C(C=Cc1cccc(S(=O)(=O)Nc2ccccc2)c1)NO + CC(CO)NC(=O)c1cc(-c2ccc(Cl)cc2)nn(-c2cnn(C)c2)c1=O ) reads 28.4

The molecule listed as Nc1ccn(C2OC(CO)C(O)C2(F)F)c(=O)n1 (stereo unspecified) + Cc1ccccc1N=Nc1ccc(NC(=O)c2ccnn2C)c(C)c1 shows viability, T/C equal to 28.7

###

System: K24384-001-R-PDC complex spheroid growth
Test: Anticancer human tumor K24384-001-R-PDC cell line growth inhibition [AhR]; active = viability on the fitted dose curve at most 10% of control; inactive = the rest;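 note: percent of DMSO vehicle-treated spheroid viability set as 100%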
Settings: second compound 0.1 µM; first compound 1 µM
Could you please pick one outcome from this set? active, inactive

Outcome logged for CC1(C)CCC(CN2CCN(c3ccc(C(=O)NS(=O)(=O)c4ccc(NCC5CCOCC5)c([N+](=O)[O-])c4)c(Oc4cnc5[nH]ccc5c4)c3)CC2)=C(c2ccc(Cl)cc2)C1 + Cc1ccccc1N=Nc1ccc(NC(=O)c2ccnn2C)c(C)c1 in this assay:
inactive

Lab log entry: CC1COCCN1c1cc(-c2ccnn2C)c2ccnc(-c3ccn[nH]3)c2n1 (configuration not stated) + Cc1cncc(-c2nc(NCCc3c[nH]c4ccccc34)c3ncn(C(C)C)c3n2)c1 — outcome as called in the assay?
inactive

Could you check what this test reported for O=C(C=Cc1cccc(S(=O)(=O)Nc2ccccc2)c1)NO + Cc1ccccc1N=Nc1ccc(NC(=O)c2ccnn2C)c(C)c1 ?
inactive

Lab log entry: Nc1ccccc1NC(=O)c1ccc(CNC(=O)OCc2cccnc2)cc1 + CC(CO)NC(=O)c1cc(-c2ccc(Cl)cc2)nn(-c2cnn(C)c2)c1=O — outcome as called in the assay?
inactive

Recorded test outcome, item Nc1ncn(C2CC(O)C(CO)O2)c(=O)n1 (configuration not stated) + CC(CO)NC(=O)c1cc(-c2ccc(Cl)cc2)nn(-c2cnn(C)c2)c1=O
inactive

Assay outcome for CC1COCCN1c1cc(-c2ccnn2C)c2ccnc(-c3ccn[nH]3)c2n1 (configuration not stated) + CC(CO)NC(=O)c1cc(-c2ccc(Cl)cc2)nn(-c2cnn(C)c2)c1=O : what was it?
inactive

Per the records of this test, what outcome belongs to CC(C)c1c(-c2ccccc2)nc2c(C#N)c[nH]n2c1=O + CC(CO)NC(=O)c1cc(-c2ccc(Cl)cc2)nn(-c2cnn(C)c2)c1=O ?
inactive

Status in this test for O=C(c1cc(Cc2n[nH]c(=O)c3ccccc23)ccc1F)N1CCN(C(=O)C2CC2)CC1 + CC(CO)NC(=O)c1cc(-c2ccc(Cl)cc2)nn(-c2cnn(C)c2)c1=O ?
inactive

// param item: COc1cccc2c1C(=O)c1c(O)c3c(c(O)c1C2=O)CC(O)(C(=O)CO)CC3OC1CC(N)C(O)C(C)O1 (configuration not stated) + Cc1ccccc1N=Nc1ccc(NC(=O)c2ccnn2C)c(C)c1 ; yields the recorded call
active

Would you mind telling me which call this test gave COc1cc(C2c3cc4c(cc3C(OC3OC5COC(C)OC5C(O)C3O)C3COC(=O)C23)OCO4)cc(OC)c1O (configuration not stated) + CC(CO)NC(=O)c1cc(-c2ccc(Cl)cc2)nn(-c2cnn(C)c2)c1=O ?
inactive

Field: outcome | Entry: NS(=O)(=O)OCC1CC(n2ccc3c(NC4CCc5ccccc54)ncnc32)CC1O (configuration not stated) + CC(CO)NC(=O)c1cc(-c2ccc(Cl)cc2)nn(-c2cnn(C)c2)c1=O
inactive

Could you please tell me the result logged for COc1cccc2c1C(=O)c1c(O)c3c(c(O)c1C2=O)CC(O)(C(=O)CO)CC3OC1CC(N)C(O)C(C)O1 (configuration not stated) + CC(CO)NC(=O)c1cc(-c2ccc(Cl)cc2)nn(-c2cnn(C)c2)c1=O in this assay?
inactive
